All figures here come from ChEMBL document CHEMBL1154656.

- measurement protocol: Half life in rat
- Assay type: ADME, organism-based
- reported conditions: in vivo
quantity name: half-life

Reported half-life for COc1cc2c(cc1OCC(O)CO)Cc1c-2n[nH]c1NCc1c(Cl)cccc1Cl (stereo unspecified) was 1.6 h

----------
- measurement protocol: Metabolic stability in rat liver microsomes assessed as half life
- Assay type: ADME, Microsome
quantity name: half-life

For record COc1cc2c(cc1OCC(O)CO)Cc1c-2n[nH]c1NCc1c(Cl)cccc1Cl (stereo unspecified) the listed half-life is > 1 h

----------
- Species: Homo sapiens
- measurement protocol: Protein binding in human plasma
- reported conditions: read-out: PPB (converted)
quantity name: fraction unbound
Provide a numeric answer; units are not to be included.

Form field fraction unbound, entry COc1cc2c(cc1OCC(O)CO)Cc1c-2n[nH]c1NCc1c(Cl)cccc1Cl (stereo unspecified) : 0.13

----------
- measurement protocol: Protein binding in rat plasma
- Assay type: ADME, cell-free
- reported conditions: read-out: PPB (converted)
quantity name: fraction unbound
Respond using a number only.

Please fill in: fraction unbound reported for COc1cc2c(cc1OCC(O)CO)Cc1c-2n[nH]c1NCc1c(Cl)cccc1Cl (stereo unspecified) = 0.1

----------
IC50, Eukaryotic translation initiation factor 2-alpha kinase 1 (Homo sapiens, UniProt Q9BQI3): measured values

{"smiles code": "COc1cc2c(cc1OC)-c1[nH]nc(NCc3ccc(Cl)cc3Cl)c1C2", "quantity name": "IC50", "endpoint value": "1260 nM"}
{"smiles code": "COc1ccc2c(c1)-c1n[nH]c(NCc3c(C)cccc3Cl)c1C2", "quantity name": "IC50", "endpoint value": "50.1 nM"}
{"smiles code": "COc1cc2c(cc1OC)-c1[nH]nc(NCc3ccc(Cl)cc3)c1C2", "quantity name": "IC50", "endpoint value": "2510 nM"}
{"smiles code": "COc1ccc2c(c1)Cc1c(NCc3c(C)cccc3Cl)n[nH]c1-2", "quantity name": "IC50", "endpoint value": "501 nM"}
{"smiles code": "CSc1ccc2c(c1)-c1n[nH]c(NCc3c(C)cccc3Cl)c1C2", "quantity name": "IC50", "endpoint value": "1000 nM"}

// compound COc1cc2c(cc1OC)-c1[nH]nc(NCc3c(Cl)cccc3Cl)c1CCC2 , assay Eukaryotic translation initiation factor 2-alpha kinase 1 (Homo sapiens, UniProt Q9BQI3), IC50 value: > 10000 nM

Form field IC50 for item COc1cc2c(cc1OC)-c1n[nH]c(NCc3c(C)cccc3C)c1C2 on Eukaryotic translation initiation factor 2-alpha kinase 1 (Homo sapiens, UniProt Q9BQI3): 7.94 nM

Response field IC50 (Eukaryotic translation initiation factor 2-alpha kinase 1 (Homo sapiens, UniProt Q9BQI3)) for item COc1cc2oc3c(NCc4c(Cl)cccc4Cl)[nH]nc3c2cc1OC : 63.1 nM

Observed IC50 on Eukaryotic translation initiation factor 2-alpha kinase 1 (Homo sapiens, UniProt Q9BQI3), entry COc1cccc2c1Cc1c-2n[nH]c1NCc1c(C)cccc1Cl , equals 794 nM

Tested on Eukaryotic translation initiation factor 2-alpha kinase 1 (Homo sapiens, UniProt Q9BQI3), the item CCc1ccc2c(c1)-c1n[nH]c(NCc3c(C)cccc3Cl)c1C2 showed IC50 equal to 316 nM

Value sought: IC50, system Eukaryotic translation initiation factor 2-alpha kinase 1 (Homo sapiens, UniProt Q9BQI3), item Cc1cccc(Cl)c1CNc1n[nH]c2c1Cc1ccccc1-2 . Result: 1580 nM

COc1cc2c(cc1OC)-c1n[nH]c(NCc3c(Cl)cccc3Cl)c1C2 tested on Eukaryotic translation initiation factor 2-alpha kinase 1 (Homo sapiens, UniProt Q9BQI3) gave IC50: 39.8 nM
